Ref: the RNAGym collection of RNA variant scans (doi:10.1002/anie.201605470)

B1: Osa-1-4 twister ribozyme (parent)
chain: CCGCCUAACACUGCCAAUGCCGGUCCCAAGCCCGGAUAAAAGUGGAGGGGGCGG

Variants of: B1
Assay: self-cleavage, relative activity (ratio to wild type); higher = more cleavage; co-transcriptional
Would you kindly list self-cleavage for each of these variants?
Answers are plain numbers.

As a guide, the following entries are already answered.
CCGCCUAACACUGCCAAUGCCGGUCACAAGCCCGGAUACAAGUGGAGGGGGCGG [A39C C26A]
0.04
CCGCCUAACACUGGCAAUGCCGGUCCCAAGCCCGGAUAAAAGUGGAGGGGGCAG [C14G G53A]
0.09
CCGCCUAACACUGCCAAUGCCGGUCCCAAGCCCGGAUUAAAGUGGAGGGGGCAG [A38U G53A]
0.81
CCGCCUAACACUGCCAAUGCCGGUCCCAAGCCCGGAUAAAAGUGGAGGAGGCCG [G49A G53C]
0.05
CCGCCUAACACUGCCAAUGCCGGUCCCAAGCCCGUAUAGAAGUGGAGGGGGCGG [A39G G35U]
0.87
CCGCCUAACACUGCCAAUGCCGGUCCCAAGCGCGGCUAAAAGUGGAGGGGGCGG [A36C C32G]
0.06

Quick request: self-cleavage for each listed item, please.
1. CCGCCUAACACUGCCAAUGCCGGUCCCAAGCCCGGAUACAAGUGGAGGGAGCGG [A39C G50A]
2. CCGCCUAAAACUGCCAAUGCCGGUCCCAAGACCGGAUAAAAGUGGAGGGGGCGG [C31A C9A]
3. CCGCCUAACACUGCCAAUGCCGGUCCCAAGCCCGGAAAAAAGUGGAGGGGGCUG [G53U U37A]
4. CCGCCUAACACUGCCAAUGCCGGUCCCAAGCCCGGAUAAAAGAGGAGGGGCCGG [G51C U43A]
5. CCGCCUAACACUGCCAAUGCCGGUCCCAAGCCAAGAUAAAAGUGGAGGGGGCGG [C33A G34A]
6. CCGCCUAACACUGCCUAUGCCGGUCCCAAGCCCGGAUAAAAGUGGAGUGGGCGG [A16U G48U]

Reply:
1: 0.64; 2: 0.02; 3: 0.32; 4: 0.06; 5: 0.08; 6: 0.06
